Ref: PubChem BioAssay AID493026

target: Potassium voltage-gated channel subfamily KQT member 1 (Homo sapiens); test: KCNQ1 thallium flux decrease by hits – cell-based, FluxOR thallium flux, counter-screen for KCNQ2 inhibitor project (AID 493026); conditions: KCNQ1-expressing cells, FluxOR thallium flux fluorescence, at 10 µM;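 also: CHO cells stably transfected with KCNQ1 and depolarized by potassium stimulus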
The campaign covered roughly 1,000 compounds. About 150 (15%) were called active.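 The calls were made as follows: active = activity change at least 3 SD of negative controls below their mean in both duplicate wells; inactive = the rest.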 Shown is part of a subset that was picked to be rich in actives.
API: response.call in YES for active, NO for inactive

Some solved entries appear below for comparison.
compound	assigned class
CCOC(=O)N1CCC(N(CCOC)C(=O)Nc2ccc(C)c(C)c2)CC1	YES
CC(C)C(NC(=O)OCc1ccccc1)C(=O)OCC(=O)N1C(C)CCCC1C (stereo unspecified)	NO
CC(C(=O)NCC1CCCCC1)N(C)Cc1cccc(Cl)c1 (stereo unspecified)	YES

# input for lookup
// query What is the recorded call for this compound in the test? O=C(Nc1ccc(Cl)c(Cl)c1)N1CC=C(c2ccccc2)CC1
// result NO
